B1: CPEB3 Ribozyme (parent)
chain: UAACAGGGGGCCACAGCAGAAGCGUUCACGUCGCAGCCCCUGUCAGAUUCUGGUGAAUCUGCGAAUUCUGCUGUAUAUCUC

Variants of: B1
TEST: self-cleavage, relative activity (ratio to wild type); higher = more cleavage; in vitro, sequencing
Reported self-cleavage values for the following variants.
The response must contain the number and no unit.

# annotated cases, reported self-cleavage shown
VAR | MEASURED
U1C A21U | 0.3
U66A A75U | 0.68
C11G U69A | 0.11
C12A A56G | 0.87
G6U A20G | 0.26
U49G U80C | 0.48
U26C U67C | 0.22
C32A A77U | 0.33

The variant listed as G33U U67C has a reported self-cleavage of 0.16

The variant listed as A15C A47U has a reported self-cleavage of 0.17

The variant listed as A35G U74C has a reported self-cleavage of 1.29

The variant listed as U49C U54A has a reported self-cleavage of 0.42

The variant listed as A28C U43A has a reported self-cleavage of 0.59

The variant listed as A5G C11G has a reported self-cleavage of 0.5

The variant listed as G22U U72C has a reported self-cleavage of 0.3

The variant listed as G9A A21C has a reported self-cleavage of 0.06

The variant listed as U48C C68G has a reported self-cleavage of 0.18

The variant listed as C11A U49G has a reported self-cleavage of 0.3

The variant listed as G52A U80C has a reported self-cleavage of 1.18
